- Test Name: IUF_NPC1a_proliferation_area_72hr: Leibniz Research Institute for Environmental Medicine (IUF) 72-hour Neural Progenitor Cell Proliferation Area Assay (NPC1a) (AID 2284208)
Activity calls are given as the source filed them. How the source made its calls: active means hit-call score of the fitted dose curve at least 0.9, where 1 is the maximum; inactive means score below 0.9.
Mark one answer only. Choices: active, inactive

The examples below pair each entry with its known result.
{"Smiles Input": "[O-][Cl+3]([O-])([O-])O", "Assigned Label": "inactive"}
{"Smiles Input": "CC(C)CCCCCCCOP(=O)(Oc1ccccc1)Oc1ccccc1", "Assigned Label": "inactive"}

Q: Recorded call for CC1(C)[C@H](C=C(Cl)Cl)[C@H]1C(=O)OCc1c(F)c(F)cc(F)c1F ?
A: inactive

Q: I would be grateful if you could indicate the recorded call for C/C(=C/C=C/[C@@H](C)C(=O)O)[C@H]1CN[C@H](C(=O)O)[C@H]1CC(=O)O .
A: inactive

Q: Tell me the assay call for O=C1N[C@@H]2C(=C[C@H](O)[C@@H](O)[C@H]2O)c2cc3c(c(O)c21)OCO3 please.
A: active

* * *

- Test Name: BSK_hDFCGF_Proliferation: Cell Proliferation Assessment in the BioMAP Diversity Plus: hDFCGF Assay (AID 2283059);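 further: curves fitted for both rise and fall of signal versus DMSO baseline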
- Assay Context: primary human foreskin fibroblasts
The source made the active and inactive calls. Rule for the calls: active = hit-call score of the fitted dose curve at least 0.9, where 1 is the maximum; inactive = score below 0.9.
Assay Endpoint: AC50

{"Smiles Input": "Nc1ccc(-c2ccc(N)c(N)c2)cc1N", "Assay Endpoint": "AC50", "Result": "inactive"}
{"Smiles Input": "CC(C)(C)C(=O)CCl", "Assay Endpoint": "AC50", "Result": "inactive"}
{"Smiles Input": "CCCCCCCCCCCC#N", "Assay Endpoint": "AC50", "Result": "10.1 µM (active)"}
{"Smiles Input": "O=[N+]([O-])C=Cc1ccccc1", "Assay Endpoint": "AC50", "Result": "0.596 µM (active)"}

* * *

- Test Name: CCTE_Shafer_MEA_dev_burst_duration_mean: CCTE's Neural Network Formation Assay for Mean Burst Duration, Shafer Lab (AID 2284045)
The source made the active and inactive calls. How the source made its calls: active means hit-call score of the fitted dose curve at least 0.9, where 1 is the maximum; inactive means score below 0.9.
Write down one outcome, taken from y = active, n = inactive

Please review the following examples before continuing.
{"Compound": "C[n+]1ccc(-c2cc[n+](C)cc2)cc1", "Assigned Label": "y"}
{"Compound": "Brc1ccc(Oc2cc(Br)c(Br)cc2Br)c(Br)c1", "Assigned Label": "n"}
{"Compound": "CNC(=N[N+](=O)[O-])NCC1CCOC1 (stereo unspecified)", "Assigned Label": "n"}

Q: Please share the test call associated with CN[C@]1(c2ccccc2Cl)CCCCC1=O .
A: n

Q: Per the records of this test, what outcome belongs to CC1(C)[C@H](C=C(Cl)Cl)[C@H]1C(=O)OCc1c(F)c(F)cc(F)c1F ?
A: y

Q: Recorded test outcome, item CCC[CH2][Sn]([CH2]CCC)([CH2]CCC)[O][Sn]([CH2]CCC)([CH2]CCC)[CH2]CCC
A: y

Q: For C[C@H](N)Cc1ccccc1 , what call appears in the results of this test?
A: n

Q: Identify the outcome logged in this assay for the compound shown: O=[As]O
A: y

Q: Dear colleague, could you share the recorded outcome for CP(=O)(O)CCC(N)C(=O)O (stereo unspecified) when you have a moment?
A: n

Q: Hi team, can someone confirm the assay call for O.O.O.O.O.[Cd+2].[Cd+2].[Cl-].[Cl-].[Cl-].[Cl-] ?
A: y

Q: What outcome does the record of this test show for NCCc1cc(O)c(O)cc1O ?
A: n

Q: What call does the record list for [CH3][Sn]([CH3])[CH3] ?
A: y

Q: How was CCOP(=O)(OCC)SCSCC classified in this test?
A: n

Q: Each compound tested received a call. Report the one for CC1(C)[C@H](C(=O)O[C@H](C#N)c2cccc(Oc3ccccc3)c2)[C@@H]1C=C(Br)Br .
A: y

Q: Record lookup: outcome of this test for CCC1(c2ccccc2)C(=O)NC(=O)NC1=O ?
A: n

* * *

- Test Name: CCTE_Shafer_MEA_acute_per_network_burst_spike_number_std: CCTE's Neural Acute Assay for Standard Deviation of Number of Spikes in a Network Burst, Shafer Lab (AID 2284020);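 further: fitted for decrease in spike-number SD versus DMSO so actives lower it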
Activity calls are given as the source filed them. How the source made its calls: active means hit-call score of the fitted dose curve at least 0.9, where 1 is the maximum; inactive means score below 0.9.
Give one outcome, nothing more. List: 1.0 for active, 0.0 for inactive

Study these solved cases before continuing.
{"Compound": "CP(=O)(O)CC[C@H](N)C(=O)O", "Assigned Label": 0.0}
{"Compound": "CC1(C)[C@@H](C=C(Cl)Cl)[C@@H]1C(=O)O[C@@H](C#N)c1ccc(F)c(Oc2ccccc2)c1", "Assigned Label": 1.0}

Q: Any idea what this test logged for CC1(C)[C@H](C=C(Cl)Cl)[C@@H]1C(=O)O[C@@H](C#N)c1cccc(Oc2ccccc2)c1 ?
A: 1.0

Q: What outcome does the record of this test show for Oc1ccc(C2(c3ccc(O)cc3)c3ccccc3-c3ccccc32)cc1 ?
A: 1.0

Q: Hi team, can someone confirm the assay call for O=c1c2ccccc2c(=O)c2c1cc(Cl)c1[nH]c3c([nH]c12)c(Cl)cc1c(=O)c2ccccc2c(=O)c13 ?
A: 0.0

Q: Given COc1ccc(CO)cc1 , state the outcome it received in this test.
A: 0.0

Q: Short answer needed: outcome of this test for O=C(O)CNCP(=O)(O)O ?
A: 0.0

Q: How was Cc1ccc(OP(=O)(Oc2ccc(C)cc2)Oc2ccc(C)cc2)cc1 (tested in a mixture with another compound) classified in this test?
A: 1.0

* * *

- Read-out: Monokine induced gamma interferon (MIG), CXCL9 (gene 4283)
- Test Name: BSK_hDFCGF_MIG: BioMAP Diversity Plus: hDFCGF Assay for Monokine induced gamma interferon (MIG) Biomarker Activity (AID 2283063)
- Assay Context: primary human foreskin fibroblasts; actives raise or lower the signal
Active and inactive are the calls of the source. Rule for the calls: active = hit-call score of the fitted dose curve at least 0.9, where 1 is the maximum; inactive = score below 0.9.
Would you mind answering with one of these outcomes? active, inactive

{"Compound": "CC(C)CCCCCCCOP(=O)(Oc1ccccc1)Oc1ccccc1", "Assigned Label": "active"}
{"Compound": "Clc1ccc(-c2ccccc2)cc1", "Assigned Label": "inactive"}
{"Compound": "CCC(C)c1cc([N+](=O)[O-])cc([N+](=O)[O-])c1OC(=O)C=C(C)C (stereo not drawn)", "Assigned Label": "active"}
{"Compound": "O=C(CCl)c1ccccc1", "Assigned Label": "active"}
{"Compound": "CCc1cc(C)cc(CC)c1-c1c(OC(=O)C(C)(C)C)n2n(c1=O)CCOCC2", "Assigned Label": "inactive"}
{"Compound": "O=S(=O)(c1ccccc1)c1ccccc1", "Assigned Label": "inactive"}

Q: Dear colleague, could you share the recorded outcome for CC(=O)/C=C/c1ccccc1 when you have a moment?
A: inactive

Q: # fetch the recorded call for Oc1cc(Cl)ccc1Cl here
A: inactive

* * *

- Target: Transcription factor E2F1 (Homo sapiens) (UniProt Q01094)
- Sequence (Q01094 whole entry, looked up): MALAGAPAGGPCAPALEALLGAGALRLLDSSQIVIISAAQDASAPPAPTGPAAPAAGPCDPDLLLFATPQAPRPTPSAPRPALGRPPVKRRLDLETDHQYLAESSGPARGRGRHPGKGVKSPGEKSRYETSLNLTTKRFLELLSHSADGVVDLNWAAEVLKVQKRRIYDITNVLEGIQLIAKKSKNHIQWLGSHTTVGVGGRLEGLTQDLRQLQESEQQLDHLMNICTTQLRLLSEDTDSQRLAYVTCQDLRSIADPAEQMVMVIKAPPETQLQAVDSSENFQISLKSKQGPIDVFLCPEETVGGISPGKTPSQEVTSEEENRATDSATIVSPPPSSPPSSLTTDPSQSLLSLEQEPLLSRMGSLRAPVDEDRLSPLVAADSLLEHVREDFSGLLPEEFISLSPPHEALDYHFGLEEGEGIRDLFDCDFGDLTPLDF
- Test Name: ATG_E2F_CIS: Attagene CIS-FACTORIAL HepG2 Assay for human E2F Transcription Factor 1 (AID 2282935)
- Assay Context: HepG2 Attagene cis-reporter, E2F reporter RNA transcripts; actives raise or lower the signal
- Description: ATG_CIS is a cell-based, multiplexed-readout assay that uses HepG2, a human liver cell line, with measurements taken at 24 hours after chemical dosing in a 24-well plate.ATG_E2F_CIS is one of 52 assay component(s) measured or calculated from the ATG_CIS assay. […] This assay endpoint, ATG_E2F_CIS, was analyzed with bidirectional fitting relative to DMSO as the negative control and baseline of activity. […]
Calls of active or inactive are those of the source. The calls were made as follows: active = hit-call score of the fitted dose curve at least 0.9, where 1 is the maximum; inactive = score below 0.9.

{"Smiles Input": "N#CC(c1ccccc1)c1ccccc1", "outcome": "inactive"}
{"Smiles Input": "CC(C)c1ccc(O)cc1", "outcome": "inactive"}
{"Smiles Input": "O=c1c2ccccc2c(=O)c2c1cc(Cl)c1[nH]c3c([nH]c12)c(Cl)cc1c(=O)c2ccccc2c(=O)c13", "outcome": "inactive"}

* * *

- Read-out: Urokinase-type plasminogen activator receptor (uPAR), PLAUR (gene 5329)
- Test Name: BSK_CASM3C_uPAR: BioMAP Diversity Plus: CASM3C Assay for Urokinase-type plasminogen activator receptor (uPAR) Biomarker Activity (AID 2283054);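 further: cell-surface uPAR protein level quantified by ELISA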
- Assay Context: primary human coronary artery smooth muscle cells; actives raise or lower the signal
Calls of active or inactive are those of the source. The calls were made as follows: active = hit-call score of the fitted dose curve at least 0.9, where 1 is the maximum; inactive = score below 0.9.
API: response.call in active, inactive

Here's what some known entries look like.
{"Compound": "CC(=O)/C=C/c1ccccc1", "Assigned Label": "inactive"}
{"Compound": "C=CCN(CC=C)C(=O)C(Cl)Cl", "Assigned Label": "inactive"}
{"Compound": "O=S(=O)(c1ccccc1)c1ccccc1", "Assigned Label": "inactive"}

Consider the record given below.
Q: Could you check what this test reported for COC(C)(C)CCC[C@H](C)C/C=C/C(C)=C/C(=O)OC(C)C ?
A: active

* * *

- Test Name: CCTE_Shafer_MEA_acute_spike_number: CCTE's Neural Acute Assay for Total Number of Spikes, Shafer Lab (AID 2284008)
Calls of active or inactive are those of the source. Rule for the calls: active = hit-call score of the fitted dose curve at least 0.9, where 1 is the maximum; inactive = score below 0.9.
Outcomes you can answer with include only these: active, inactive

Here are 2 molecules together with their reported answers.
{"Molecule": "CP(=O)(O)CCC(N)C(=O)O (stereo unspecified)", "Assigned Label": "inactive"}
{"Molecule": "CP(=O)(O)CC[C@H](N)C(=O)O", "Assigned Label": "inactive"}

Now examine the next entry.
Q: Per the assay record, what outcome was assigned to Oc1ccc(C2(c3ccc(O)cc3)c3ccccc3-c3ccccc32)cc1 ?
A: active
